# IC50 values compiled below
- Procedure text: Inhibition of PA28 activated chymotrypsin-like activity of human 20S proteasome using suc-LLVY-AMC as substrate by fluorescence assay
- Condition details: read-out: IC50
Please respond with the number in µM and leave the unit unwritten.

Would you please look over these solved cases?
In [3]: df
Out[3]:
                            compound_smiles  property_measured  output_unit  test_result
0  COC(=O)CC[C@@H](C)[C@H]1CC[C@H]2[C@@H]3CC[C@@H]4C[C@@H](OC(=O)CCCCCC(=O)O)CC[C@]4(C)[C@H]3CC[C@]12C               IC50           µM          3.1
1  COC(=O)CC[C@@H](C)[C@H]1CC[C@H]2[C@@H]3CC[C@@H]4C[C@@H](NC(=O)CCCCCC(=O)O)CC[C@]4(C)[C@H]3CC[C@]12C               IC50           µM          2.6

Query :: Please report the recorded IC50 for COC(=O)CC[C@@H](C)[C@H]1CC[C@H]2[C@@H]3CC[C@@H]4C[C@@H](N)CC[C@]4(C)[C@H]3CC[C@]12C .
Result :: 5.7
